Values from ChEMBL document CHEMBL1145373

# assay.notes: Toxicity assessed as prolongation of action potential duration in dog purkinje fibres at 20 uM
# Assay type: tissue-based, Canis lupus familiaris, Purkinje fiber
measured.metric: Activity (%)
Output spec: scalar in %, unitless text.

Field: example entries. Status: answers known.
INSERT INTO measurements (smiles_record, value_reported) VALUES
  ('Cc1n[nH]c2cnc(-c3cncc(OC[C@@H](N)Cc4cccc(C(F)(F)F)c4)c3)cc12', -4),
  ('Cc1n[nH]c2ccc(-c3cncc(OC[C@@H](N)Cc4ccc(Cl)c(F)c4)c3)cc12', -1.3);

Continue with the next compound.
# input Give its Activity value. Item: "Cc1n[nH]c2ccc(-c3cncc(OC[C@@H](N)Cc4c[nH]c5ccccc45)c3)cc12"
# output 2.4

###

Each item that follows carries a reported half-life.
# assay.notes: Half life in mouse at 10 mg/kg, po
# Assay type: ADME, organism-based
# Set-up: dose 10 mg/kg, route oral
# test.context: in vivo
Output spec: scalar in h, unitless text.

INSERT INTO results (smiles_record, measured_metric, measurement_unit, value_reported) VALUES
  ('Cc1n[nH]c2ccc(-c3cncc(OC[C@@H](N)Cc4ccccc4)c3)cc12', 'half-life', 'h', 1),
  ('Cc1n[nH]c2ccc(-c3cncc(OC[C@@H](N)Cc4c[nH]c5ccccc45)c3)cc12', 'half-life', 'h', 0.6),
  ('Cc1n[nH]c2cnc(-c3cncc(OC[C@@H](N)Cc4cccc(C(F)(F)F)c4)c3)cc12', 'half-life', 'h', 1.84);

Continue with the next molecule.
# input Give its half-life value. Item: "Cc1n[nH]c2ccc(-c3cncc(OC[C@@H](N)Cc4ccc(Cl)c(F)c4)c3)cc12"
# output 2.1

###

Each item that follows carries a reported half-life.
# assay.notes: Half life in mouse at 3 mg/kg, iv
# Assay type: ADME, organism-based
# Design: dose 3 mg/kg, route intravenous
# test.context: in vivo
For clarity, give the value followed by its unit.

Field: example entries. Status: answers known.
INSERT INTO assay_data (compound, value_reported) VALUES
  ('Cc1n[nH]c2ccc(-c3cncc(OC[C@@H](N)Cc4c[nH]c5ccccc45)c3)cc12', '36 min'),
  ('Cc1n[nH]c2ccc(-c3cncc(OC[C@@H](N)Cc4ccccc4)c3)cc12', '60 min');

# input Give its half-life value. Item: "N[C@H](COc1cncc(-c2ccc3c(c2)/C(=C/c2ccc[nH]2)C(=O)N3)c1)Cc1ccccc1"
# output 30 min

# input And the next one, N[C@H](COc1cncc(-c2ccc3c(c2)/C(=C\c2ccco2)C(=O)N3)c1)Cc1ccccc1 (stereo in doubt) ?
# output 69 min

###

Each item that follows carries a reported bioavailability.
# assay.notes: Oral bioavailability in mouse at 10 mg/kg, po
# Type: ADME, organism-based
# test.context: in vivo
Output spec: scalar in %, unitless text.

Field: example entries. Status: answers known.
INSERT INTO measurements (molecule, value_reported) VALUES
  ('Cc1n[nH]c2cnc(-c3cncc(OC[C@@H](N)Cc4cccc(C(F)(F)F)c4)c3)cc12', 25),
  ('N[C@H](COc1cncc(-c2ccc3c(c2)/C(=C/c2ccc[nH]2)C(=O)N3)c1)Cc1ccccc1', 0),
  ('Cc1n[nH]c2ccc(-c3cncc(OC[C@@H](N)Cc4ccc(Cl)c(F)c4)c3)cc12', 84),
  ('N[C@H](COc1cncc(-c2ccc3c(c2)/C(=C\c2ccco2)C(=O)N3)c1)Cc1ccccc1 (stereo in doubt)', 0);

# input Give its bioavailability value. Item: "Cc1n[nH]c2ccc(-c3cncc(OC[C@@H](N)Cc4ccccc4)c3)cc12"
# output 70
